Test system: Escherichia coli TOP10
Test details: shrunken log2 fold change of peptide-encoding DNA abundance (4.5 h post-induction vs induction); higher = less antimicrobial activity (less host growth inhibition)
Conditions: time post-induction: 4.5 h; library: site-saturation at positions 5, 18, 19, 20
Assay metric: shrunken log2 fold change
A bare number is all that is needed in reply.

Primary sequence: RRIRFRPPRLPRPRPRPPWRPRP
Assay value: 1.68
//
Primary sequence: RRIRIRPPRLPRPRPRPNWLPRP
Assay value: -0.0339
//
Primary sequence: RRIRERPPRLPRPRPRPHTHPRP
Assay value: -1.01

Identify shrunken log2 fold change associated with the sequence RRIRCRPPRLPRPRPRPTLNPRP -0.232

Tell me its shrunken log2 fold change given RRIRRRPPRLPRPRPRPNICPRP as the entry. 0.0828

Query shrunken log2 fold change for RRIRTRPPRLPRPRPRPSFCPRP -0.296

Give the reported value of shrunken log2 fold change for this record: RRIRPRPPRLPRPRPRPMPCPRP 0.0941

Tell me measured shrunken log2 fold change for RRIRQRPPRLPRPRPRPCPSPRP please. 0.0332

Please give measured shrunken log2 fold change of the following entry: RRIRKRPPRLPRPRPRPMEIPRP 0.155

State its shrunken log2 fold change: RRIRYRPPRLPRPRPRPELEPRP 0.0858

Tell me its shrunken log2 fold change given RRIRCRPPRLPRPRPRPQYSPRP as the entry. -0.273

Retrieve shrunken log2 fold change measured for RRIRWRPPRLPRPRPRPTQGPRP and print it. 0.533

Identify the reported shrunken log2 fold change for the following entry. RRIRRRPPRLPRPRPRPFQAPRP 0.376

Report measured shrunken log2 fold change; entry is RRIRARPPRLPRPRPRPYCPPRP -0.585

Identify shrunken log2 fold change associated with the sequence RRIRLRPPRLPRPRPRPDIKPRP -0.145

Answer with reported shrunken log2 fold change of RRIRDRPPRLPRPRPRPKEYPRP -0.0963

Let me know recorded shrunken log2 fold change for RRIRRRPPRLPRPRPRPLCLPRP , thanks. 0.0544

Supply reported shrunken log2 fold change belonging to this sequence: RRIRHRPPRLPRPRPRPGFDPRP 0.105

State its shrunken log2 fold change: RRIRIRPPRLPRPRPRPAGFPRP 0.0153

====

Tested on: Escherichia coli TOP10
Test details: shrunken log2 fold change of peptide-encoding DNA abundance (4.5 h post-induction vs induction); higher = less antimicrobial activity (less host growth inhibition)
Conditions: time post-induction: 4.5 h; library: site-saturation at positions 5, 18, 19, 20
// reported shrunken log2 fold change for each item listed
Write the value as a bare number.

Example entries and their recorded answers appear below.
Primary sequence: RRIRDRPPRLPRPRPRPSRMPRP
Test system: Escherichia coli TOP10
shrunken log2 fold change: -0.0207
//
Primary sequence: RRIRLRPPRLPRPRPRPACVPRP
Test system: Escherichia coli TOP10
shrunken log2 fold change: 0.131
//
Primary sequence: RRIRGRPPRLPRPRPRPWGQPRP
Test system: Escherichia coli TOP10
shrunken log2 fold change: 0.204
//
Primary sequence: RRIRGRPPRLPRPRPRPYHIPRP
Test system: Escherichia coli TOP10
shrunken log2 fold change: 0.158
//
Primary sequence: RRIRHRPPRLPRPRPRPGFSPRP
Test system: Escherichia coli TOP10;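 note: peptides expressed intracellularly from a pBAD plasmid library in pooled LB shake-flask culture, induced with 0.3% L-arabinose, DNA abundance read by NGS, three biological replicates, DESeq2 with apeglm shrinkage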
shrunken log2 fold change: -0.236

Return shrunken log2 fold change (reported value) for this sequence: RRIRSRPPRLPRPRPRPNHPPRP -0.0712
